Test system: RAF1
Details: concentration: 1 μM, replicates: in singlicate; n = 1
In this section we review reported %Inh values for a set of compounds.

# COMPOUND, %Inh
rows = [
    ("CC(C)(C)c1ccc(C(=O)Nc2cn3cc(-c4cccnc4)ccc3n2)cc1", "0%"),
    ("COc1ccc(Nc2nccc(-c3cccc(NC(=O)c4cc5cc(F)ccc5[nH]4)c3)n2)cc1 [GSK1229782]", "13%"),
    ("Cc1csc(-c2nc(Nc3ccncc3)c3ccccc3n2)n1 [GW869640]", "0%"),
    ("COc1ccc(Nc2nccc(NCCNC(=O)Nc3ccccc3F)n2)cc1 [GSK1379901]", "20%"),
    ("Cn1ccc2ncnc(Oc3cccc(C(=O)Nc4ccccc4)c3)c21", "5%"),
    ("CC(=O)Nc1nc2cnc(Nc3cc(NC(=O)c4cccc(CCC#N)c4)ccc3C)nc2s1", "88%"),
    ("COc1cc2ncnc(Nc3ccc4nc(-c5ccccc5)[nH]c4c3)c2cc1OC.Cl [GW282450]", "10%"),
    ("Nc1nc(-c2nccs2)c(-c2ccnc3ccccc23)s1 [GW693542]", "15%"),
]

// map Cc1ccc(NC(=O)Nc2cccc(Cl)c2)cc1-c1ccc(C(=O)Nc2ccncc2)cc1 [GSK1398468] to recorded %Inh (system: RAF1) 91.4%

====

Test system: PLK4;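 also: kd values determined as follow-up on hits from a single-replicate KINOMEscan panel screen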
pKd: −log10 of the molar value.
MEASURED QUANTITY: pKd

// map `COc1ccccc1CNC(=O)c1cc(C(=O)c2ccccc2C)c[nH]1` to recorded pKd (system: PLK4) < 5.00

====

System: NLK
Settings: concentration: 1 μM, replicates: in singlicate; n = 1
MEASURED QUANTITY: %Inh

# COMPOUND, TESTED SYSTEM, %Inh
rows = [
    ("O=C(O)COc1ncnc2cc(-c3ccc4[nH]ncc4c3)sc12", "NLK", "0%"),
]

So what does the record say about %Inh for `COc1cc2nccc(Nc3ccc(NC(=O)c4ccc(C)cc4)c(O)c3)c2cc1OC.Cl` ? 0%

So what does the record say about %Inh for `Cc1c(O)cccc1Nc1ccnc2ccc(C(F)(F)F)cc12.Cl` ? 0%

So what does the record say about %Inh for `Nc1nc(-c2nccs2)c(-c2ccnc3ccccc23)s1` ? 38%

So what does the record say about %Inh for `Fc1cc(Cl)ccc1Nc1ccnc2cc(-c3ccc(CN4CCCCC4)o3)ccc12` ? 16%

====

In this section we review reported %Inh values for a set of compounds.
Tested on: IGF1R
Conditions: concentration: 1 μM, replicates: in singlicate; n = 1
Write the number in % without appending the unit.

Below, 3 compounds whose answers are already recorded.
# COMPOUND, RESULT NUMBER
data = [
    ("CCCc1ccc(S(=O)(=O)NC2CCN(c3ccnc(Nc4ccc(F)cc4)n3)C2)cc1 (centres unmarked) [GSK1379715]", 0),
    ("COc1cccc(NC(=O)NC2CCN(c3ccnc(Nc4ccc(F)cc4)n3)C2)c1 (centres unmarked) [GSK1379721]", 0),
    ("COc1ccc(Nc2nccc(NCCNC(=O)Nc3ccccc3F)n2)cc1 [GSK1379901]", 10),
]

So what does the record say about %Inh for COc1cc2ncnc(Nc3ccc4nc(-c5ccccc5)[nH]c4c3)c2cc1OC.Cl [GW282450] ? 6

So what does the record say about %Inh for CCn1c(-c2cccnc2O)nc2cnccc21 [SB-736715] ? 0
